In this section, each of the molecules is paired with its reported pIC50.
MEASURED_ON: Aurora-A (Mus musculus)
Sequence (P97477 1-395): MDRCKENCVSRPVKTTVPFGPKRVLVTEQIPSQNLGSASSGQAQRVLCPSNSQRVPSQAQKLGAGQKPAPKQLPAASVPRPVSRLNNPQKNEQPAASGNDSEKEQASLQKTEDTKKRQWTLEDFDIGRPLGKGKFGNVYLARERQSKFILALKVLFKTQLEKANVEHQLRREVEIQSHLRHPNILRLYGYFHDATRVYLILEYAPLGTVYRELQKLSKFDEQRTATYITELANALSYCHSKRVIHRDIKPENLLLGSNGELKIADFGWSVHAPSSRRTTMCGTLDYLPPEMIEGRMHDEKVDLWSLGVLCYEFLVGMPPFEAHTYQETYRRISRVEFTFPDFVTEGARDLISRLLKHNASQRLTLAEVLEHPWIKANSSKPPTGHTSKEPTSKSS
pIC50: −log10 of the molar value.

{"columns": ["CHEMICAL_STRING", "pIC50"],
 "data": [
  ["COc1cc(NC(=O)c2sc3ncc(C#N)c4c3c2NC(=O)N4c2ccc(Oc3ccccc3)cc2)ccc1CN1CCOCC1", "< 4.00"],
  ["COc1cc(N2C(=O)Nc3c(C(=O)Nc4ccc(CN5CCOCC5)cc4)sc4ncc(C#N)c2c34)c(Cl)cc1Cl", "< 5.00"],
  ["CCOC(=O)c1sc2nc(N3CCOCC3)c(C#N)c3c2c1NC(=O)N3c1c(Cl)ccc2c1OCO2", "< 5.00"],
  ["COC1CCN(Cc2ccc(NC(=O)c3sc4ncc(C#N)c5c4c3NC(=O)N5c3c(Cl)ccc4c3OCO4)cc2)CC1", "< 6.00"],
  ["CN(C)C1CCN(C(=O)c2sc3ncc(C#N)c4c3c2NC(=O)N4c2c(Cl)ccc3c2OCO3)CC1", "< 5.00"]
]}

Data request, read-out pIC50, for "CCOC(=O)c1sc2nc(-c3cc(F)ccc3Cl)c(C#N)c3c2c1NC(=O)N3c1ccncc1"
< 4.00

Next record, please: "CN(C)C1CCN(Cc2ccc(NC(=O)c3sc4ncc(C#N)c5c4c3NC(=O)N5c3c(Cl)ccc4c3OCO4)cc2)CC1"
< 5.00

====

MEASURED_ON: HER-2 (Homo sapiens)
Construct: the nucleotides encoding amino acids 679 to 1255 of HER-2; purchased Proqinase (Freiburg, Germany)
Sequence (P04626 679-1255): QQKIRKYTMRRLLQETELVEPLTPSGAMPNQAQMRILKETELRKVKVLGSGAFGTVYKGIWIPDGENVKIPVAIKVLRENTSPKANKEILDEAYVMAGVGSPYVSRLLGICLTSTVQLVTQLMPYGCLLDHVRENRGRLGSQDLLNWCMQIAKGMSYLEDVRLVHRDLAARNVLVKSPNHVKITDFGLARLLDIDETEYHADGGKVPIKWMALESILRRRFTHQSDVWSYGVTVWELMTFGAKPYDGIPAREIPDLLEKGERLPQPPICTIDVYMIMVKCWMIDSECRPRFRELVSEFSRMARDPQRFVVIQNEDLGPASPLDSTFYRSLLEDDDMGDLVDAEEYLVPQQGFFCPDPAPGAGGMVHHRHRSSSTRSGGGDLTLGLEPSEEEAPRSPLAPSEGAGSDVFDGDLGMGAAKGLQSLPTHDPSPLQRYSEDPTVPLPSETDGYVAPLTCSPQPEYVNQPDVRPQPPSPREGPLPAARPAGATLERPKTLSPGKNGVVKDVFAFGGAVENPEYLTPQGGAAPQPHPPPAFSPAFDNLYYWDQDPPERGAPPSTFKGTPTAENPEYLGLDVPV
ASSAY_SUMMARY: HER-2 Kinase Assay
Format: biochemical
REPORTED_CONDITIONS: test concentration of 1 μM; read-out: HER-2 percent inhibition
MEASUREMENT_LABEL: inhibition at 1 µM (%)

{"columns": ["COMPOUND", "MEASUREMENT_LABEL", "MEASURED"],
 "data": [
  ["N#Cc1cnc2sc(C(=O)Nc3ccc(CN4CCCC(CO)C4)cc3)c3c2c1N(c1c(Cl)ccc2c1OCO2)C(=O)N3 (stereo not shown)", "inhibition at 1 µM", 41],
  ["N#Cc1cnc2sc(C(=O)Nc3ccc(NCCCN4CCOCC4)nc3)c3c2c1N(c1c(Cl)ccc2c1OCO2)C(=O)N3", "inhibition at 1 µM", 35],
  ["N#Cc1cnc2sc(C(=O)Nc3ccc(CN4CCC(CO)CC4)cc3)c3c2c1N(c1c(Cl)ccc2c1OCO2)C(=O)N3", "inhibition at 1 µM", 48],
  ["N#Cc1cnc2sc(C(=O)N3CCC(O)CC3)c3c2c1N(c1c(Cl)ccc2c1OCO2)C(=O)N3", "inhibition at 1 µM", 35]
]}

Origin of measurements: patent US7427625B2
